system: Rattus norvegicus; test: Toxicity in anaesthetized-Wistar rat assessed as P-Q ECG interval at 40 mg/kg, ip after 15 mins (reference value: 52.2 +/- 1.158 ms); format: organism-based; set-up: dose 40 mg/kg, route intraperitoneal; conditions: in vivo, 0.25 h
endpointName: Activity (min)

>>> reportedmeasurement("CCN(CC)CC(O)CN1C(=O)/C(=C\\c2ccccc2)S/C1=N\\c1ccccc1 (stereo not given)")
52.2
>>> reportedmeasurement("O=C1/C(=C\\c2ccccc2)S/C(=N\\c2ccccc2)N1CC(O)CN1CCOCC1 (stereo not given)")
50.2
>>> reportedmeasurement("CN1CCN(CC(O)CN2C(=O)/C(=C\\c3ccccc3)S/C2=N\\c2ccccc2)CC1 (stereo not given)")
53.2
>>> reportedmeasurement("O=C1/C(=C\\c2ccccc2)S/C(=N\\c2ccccc2)N1CC(O)CN1CCC(C(O)(c2ccccc2)c2ccccc2)CC1 (stereo not given)")
50.1
>>> reportedmeasurement("CCCCN(CCCC)CC(O)CN1C(=O)/C(=C\\c2ccccc2)S/C1=N\\c1ccccc1 (stereo not given)")
55

====

system: Rattus norvegicus; experiment: Toxicity in anaesthetized-Wistar rat assessed as QRS ECG interval at 40 mg/kg, ip after 45 mins (reference value: 20.2 +/- 1.348 ms); type: organism-based; parameters: dose 40 mg/kg, route intraperitoneal; conditions: in vivo, 0.75 h
endpointName: Activity (min)

>>> reportedmeasurement("O=C1/C(=C\\c2ccccc2)S/C(=N\\c2ccccc2)N1CC(O)CN1CCN(c2ccccc2)CC1 (stereo not given)")
24.1
>>> reportedmeasurement("O=C1/C(=C\\c2ccccc2)S/C(=N\\c2ccccc2)N1CC(O)CN1CCC(C(O)(c2ccccc2)c2ccccc2)CC1 (stereo not given)")
24.2
>>> reportedmeasurement("O=C1/C(=C\\c2ccccc2)S/C(=N\\c2ccccc2)N1CC(O)CN1CCCCC1 (stereo not given)")
22.8
>>> reportedmeasurement("O=C1/C(=C\\c2ccccc2)S/C(=N\\c2ccccc2)N1CC(O)CN(c1ccccc1)c1ccccc1 (stereo not given)")
21.6
>>> reportedmeasurement("CCCCN(CCCC)CC(O)CN1C(=O)/C(=C\\c2ccccc2)S/C1=N\\c1ccccc1 (stereo not given)")
22.4

====

tested on: Rattus norvegicus; experiment: Antihypertensive activity in Wistar rat assessed as mean arterial pressure at 40 mg/kg, ip after 15 mins (reference value: 195.68 +/- 1.623 mmHg); type: functional, Artery; conditions: route intraperitoneal
Reported Activity by item:
endpointName: Activity (mmHg)

>>> reportedmeasurement("O=C1/C(=C\\c2ccccc2)S/C(=N\\c2ccccc2)N1CC(O)CN1CCCCC1 (stereo not given)")
165.33
>>> reportedmeasurement("O=C1/C(=C\\c2ccccc2)S/C(=N\\c2ccccc2)N1CC(O)CN(c1ccccc1)c1ccccc1 (stereo not given)")
183.55
>>> reportedmeasurement("CCN(CC)CC(O)CN1C(=O)/C(=C\\c2ccccc2)S/C1=N\\c1ccccc1 (stereo not given)")
172.98
>>> reportedmeasurement("O=C1/C(=C\\c2ccccc2)S/C(=N\\c2ccccc2)N1CC(O)CN1CCN(Cc2ccccc2)CC1 (stereo not given)")
179.02
>>> reportedmeasurement("CC(C)N1CCN(CC(O)CN2C(=O)/C(=C\\c3ccccc3)S/C2=N\\c2ccccc2)CC1 (stereo not given)")
185.53

====

system: Rattus norvegicus; experiment: Toxicity in […] normotensive Wistar rat assessed as mean arterial pressure at 40 mg/kg, ip after 15 mins (reference value: 93.81 +/- 1.543 mmHg); type: organism-based, Artery; design: dose 40 mg/kg, route intraperitoneal; conditions: in vivo, 0.25 h
Reported Activity by item:
endpointName: Activity (mmHg)

>>> reportedmeasurement("O=C1/C(=C\\c2ccccc2)S/C(=N\\c2ccccc2)N1CC(O)CN1CCN(Cc2ccccc2)CC1 (centres undefined)")
92.1
>>> reportedmeasurement("CCN(CC)CC(O)CN1C(=O)/C(=C\\c2ccccc2)S/C1=N\\c1ccccc1 (centres undefined)")
79.23
>>> reportedmeasurement("CCCCN(CCCC)CC(O)CN1C(=O)/C(=C\\c2ccccc2)S/C1=N\\c1ccccc1 (centres undefined)")
84.43
>>> reportedmeasurement("O=C1/C(=C\\c2ccccc2)S/C(=N\\c2ccccc2)N1CC(O)CN1CCCC1 (centres undefined)")
84.63
>>> reportedmeasurement("O=C1/C(=C\\c2ccccc2)S/C(=N\\c2ccccc2)N1CC(O)CN1CCC(C(O)(c2ccccc2)c2ccccc2)CC1 (centres undefined)")
76.73
>>> reportedmeasurement("O=C1/C(=C\\c2ccccc2)S/C(=N\\c2ccccc2)N1CC(O)CN1CCCCC1 (centres undefined)")
82.63
>>> reportedmeasurement("O=C1/C(=C\\c2ccccc2)S/C(=N\\c2ccccc2)N1CC(O)CN1CCN(c2ccccc2)CC1 (centres undefined)")
86.43
>>> reportedmeasurement("O=C1/C(=C\\c2ccccc2)S/C(=N\\c2ccccc2)N1CC(O)CN(c1ccccc1)c1ccccc1 (centres undefined)")
87.32
>>> reportedmeasurement("O=C1/C(=C\\c2ccccc2)S/C(=N\\c2ccccc2)N1CC(O)CN1CCOCC1 (centres undefined)")
82.61
>>> reportedmeasurement("CC(C)N1CCN(CC(O)CN2C(=O)/C(=C\\c3ccccc3)S/C2=N\\c2ccccc2)CC1 (centres undefined)")
79.32
>>> reportedmeasurement("O=C1/C(=C\\c2ccccc2)S/C(=N\\c2ccccc2)N1CC(O)CN1CCNCC1 (centres undefined)")
78.76
>>> reportedmeasurement("O=C1/C(=C\\c2ccccc2)S/C(=N\\c2ccccc2)N1CC(O)CN1CCN(C2CCCCC2)CC1 (centres undefined)")
85.61
>>> reportedmeasurement("CN1CCN(CC(O)CN2C(=O)/C(=C\\c3ccccc3)S/C2=N\\c2ccccc2)CC1 (centres undefined)")
79.37
>>> reportedmeasurement("CCCN(CCC)CC(O)CN1C(=O)/C(=C\\c2ccccc2)S/C1=N\\c1ccccc1 (centres undefined)")
91.1

====

test system: Rattus norvegicus; assay: Toxicity in […] normotensive Wistar rat assessed as mean arterial pressure at 40 mg/kg, ip after 60 mins (reference value: 95.07 +/- 1.973 mmHg); assay type: organism-based, Artery; design: dose 40 mg/kg, route intraperitoneal; conditions: in vivo, 1 h
Reported Activity by item:
endpointName: Activity (mmHg)

>>> reportedmeasurement("CCCCN(CCCC)CC(O)CN1C(=O)/C(=C\\c2ccccc2)S/C1=N\\c1ccccc1 (stereo not given)")
90.59
>>> reportedmeasurement("O=C1/C(=C\\c2ccccc2)S/C(=N\\c2ccccc2)N1CC(O)CN(c1ccccc1)c1ccccc1 (stereo not given)")
90.27
>>> reportedmeasurement("CN1CCN(CC(O)CN2C(=O)/C(=C\\c3ccccc3)S/C2=N\\c2ccccc2)CC1 (stereo not given)")
74.63
>>> reportedmeasurement("O=C1/C(=C\\c2ccccc2)S/C(=N\\c2ccccc2)N1CC(O)CN1CCNCC1 (stereo not given)")
70.27
>>> reportedmeasurement("CCCN(CCC)CC(O)CN1C(=O)/C(=C\\c2ccccc2)S/C1=N\\c1ccccc1 (stereo not given)")
88.98

====

Reported Activity by item:
test system: Rattus norvegicus; test: Toxicity in anaesthetized-Wistar rat assessed as P-Q ECG interval at 40 mg/kg, ip after 15 mins (reference value: 52.2 +/- 1.158 ms); format: organism-based; parameters: dose 40 mg/kg, route intraperitoneal; conditions: in vivo, 0.25 h
endpointName: Activity (min)

>>> reportedmeasurement("O=C1/C(=C\\c2ccccc2)S/C(=N\\c2ccccc2)N1CC(O)CN1CCCC1 (centres undefined)")
51.6
>>> reportedmeasurement("O=C1/C(=C\\c2ccccc2)S/C(=N\\c2ccccc2)N1CC(O)CN1CCCCC1 (centres undefined)")
51.7
>>> reportedmeasurement("O=C1/C(=C\\c2ccccc2)S/C(=N\\c2ccccc2)N1CC(O)CN1CCN(C2CCCCC2)CC1 (centres undefined)")
51.7
>>> reportedmeasurement("O=C1/C(=C\\c2ccccc2)S/C(=N\\c2ccccc2)N1CC(O)CN1CCNCC1 (centres undefined)")
54.7
>>> reportedmeasurement("O=C1/C(=C\\c2ccccc2)S/C(=N\\c2ccccc2)N1CC(O)CN1CCN(Cc2ccccc2)CC1 (centres undefined)")
50.4
>>> reportedmeasurement("CC(C)N1CCN(CC(O)CN2C(=O)/C(=C\\c3ccccc3)S/C2=N\\c2ccccc2)CC1 (centres undefined)")
53.9
>>> reportedmeasurement("O=C1/C(=C\\c2ccccc2)S/C(=N\\c2ccccc2)N1CC(O)CN(c1ccccc1)c1ccccc1 (centres undefined)")
51.2
>>> reportedmeasurement("O=C1/C(=C\\c2ccccc2)S/C(=N\\c2ccccc2)N1CC(O)CN1CCN(c2ccccc2)CC1 (centres undefined)")
52.7
>>> reportedmeasurement("CCCN(CCC)CC(O)CN1C(=O)/C(=C\\c2ccccc2)S/C1=N\\c1ccccc1 (centres undefined)")
49.7

====

tested on: Rattus norvegicus; assay: Antiarrhythmic activity in barium chloride-induced Wistar rat assessed as increase in mortality time at 40 mg/kg, ip administered 60 mins before barium chloride challenge (reference value: 682.8 +/- 9.656 secs); format: functional, Heart; conditions: route intraperitoneal
Reported Time by item:
endpointName: Time (s)

>>> reportedmeasurement("CCCCN(CCCC)CC(O)CN1C(=O)/C(=C\\c2ccccc2)S/C1=N\\c1ccccc1 (centres undefined)")
786.2
>>> reportedmeasurement("O=C1/C(=C\\c2ccccc2)S/C(=N\\c2ccccc2)N1CC(O)CN1CCC(C(O)(c2ccccc2)c2ccccc2)CC1 (centres undefined)")
1162.1
>>> reportedmeasurement("CN1CCN(CC(O)CN2C(=O)/C(=C\\c3ccccc3)S/C2=N\\c2ccccc2)CC1 (centres undefined)")
1276
>>> reportedmeasurement("O=C1/C(=C\\c2ccccc2)S/C(=N\\c2ccccc2)N1CC(O)CN1CCNCC1 (centres undefined)")
1380.5
>>> reportedmeasurement("O=C1/C(=C\\c2ccccc2)S/C(=N\\c2ccccc2)N1CC(O)CN(c1ccccc1)c1ccccc1 (centres undefined)")
768.5
>>> reportedmeasurement("O=C1/C(=C\\c2ccccc2)S/C(=N\\c2ccccc2)N1CC(O)CN1CCN(Cc2ccccc2)CC1 (centres undefined)")
986.7
>>> reportedmeasurement("CCN(CC)CC(O)CN1C(=O)/C(=C\\c2ccccc2)S/C1=N\\c1ccccc1 (centres undefined)")
1142.4
>>> reportedmeasurement("O=C1/C(=C\\c2ccccc2)S/C(=N\\c2ccccc2)N1CC(O)CN1CCN(C2CCCCC2)CC1 (centres undefined)")
944.9
>>> reportedmeasurement("O=C1/C(=C\\c2ccccc2)S/C(=N\\c2ccccc2)N1CC(O)CN1CCOCC1 (centres undefined)")
1089.8
